This listing pairs molecules with measured viability, T/C.
System: K98450-129-R-PDC complex spheroid growth, percent test/control
METHOD SUMMARY: Anticancer human tumor K98450-129-R-PDC patient-derived colon adenocarcinoma cell line growth inhibition [RAS]
MEASUREMENT PARAMETERS: second compound 0.00949 µM; first compound 0.1 µM; active compounds read low
READOUT KIND: viability, T/C (%)

CCC(CC)c1cc(NC2CCC(N)C2)n2nccc2n1 (configuration not stated) + CCn1c(-c2cccnc2C(C)OC)c2c3cc(ccc31)N1CCOC(CC(NC(=O)C(C(C)C)N(C)C(=O)C3(F)CCN(C(=O)C#CC(C)(C)N(C)C)CC3)C(=O)N3CCCC(N3)C(=O)OCC(C)(C)C2)C1 | 53.3
NC1c2ccccc2OC12CCN(c1cnc3c(N4CCCc5ncccc54)n[nH]c3n1)CC2 (configuration not stated) + CCn1c(-c2cccnc2C(C)OC)c2c3cc(ccc31)N1CCOC(CC(NC(=O)C(C(C)C)N(C)C(=O)C3(F)CCN(C(=O)C#CC(C)(C)N(C)C)CC3)C(=O)N3CCCC(N3)C(=O)OCC(C)(C)C2)C1 | 9.32

----------
Tested on: K98450-129-R-PDC complex spheroid growth, percent test/control
METHOD SUMMARY: Anticancer human tumor K98450-129-R-PDC cell line growth inhibition [RAS];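 further: luminescence used as a proxy for viable cell amount; spheroids exposed to agents for seven days before the viability readout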
MEASUREMENT PARAMETERS: second compound 0.3 µM; first compound 1 µM; active compounds read low
READOUT KIND: viability, T/C (%)

Cc1nc(N2CCC3(CC2)COC(C)C3N)c(CO)nc1Sc1ccnc(N)c1Cl (centres undefined) + CCn1c(-c2cc(N3CCN(C)CC3)cnc2C(C)OC)c2c3cc(ccc31)-c1csc(n1)CC(NC(=O)C1CC1C)C(=O)N1CCCC(N1)C(=O)OCC(C)(C)C2 | 7.56
O=C(c1ccc(F)c(F)c1Nc1ccc(I)cc1F)N1CC(O)([C@@H]2CCCCN2)C1 + CCn1c(-c2cc(N3CCN(C)CC3)cnc2C(C)OC)c2c3cc(ccc31)-c1csc(n1)CC(NC(=O)C1CC1C)C(=O)N1CCCC(N1)C(=O)OCC(C)(C)C2 | 2.59
CCN1CCN(Cc2ccc(Nc3ncc(F)c(-c4cc(F)c5nc(C)n(C(C)C)c5c4)n3)nc2)CC1 + CCn1c(-c2cc(N3CCN(C)CC3)cnc2C(C)OC)c2c3cc(ccc31)-c1csc(n1)CC(NC(=O)C1CC1C)C(=O)N1CCCC(N1)C(=O)OCC(C)(C)C2 | 23.1
CC(Nc1ccc2c(c1)OCCn1cc(N3C(=O)OCC3C(F)F)nc1-2)C(N)=O (centres undefined) + CCn1c(-c2cc(N3CCN(C)CC3)cnc2C(C)OC)c2c3cc(ccc31)-c1csc(n1)CC(NC(=O)C1CC1C)C(=O)N1CCCC(N1)C(=O)OCC(C)(C)C2 | 8.15

----------
Tested on: K98450-129-R-PDC complex spheroid growth, percent test/control
METHOD SUMMARY: Anticancer human tumor K98450-129-R-PDC cell line growth inhibition [RAS];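 further: luminescence used as a proxy for viable cell amount; spheroids exposed to agents for seven days before the viability readout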
MEASUREMENT PARAMETERS: second compound 0.1 µM; first compound 0.316 µM; active compounds read low
READOUT KIND: viability, T/C (%)

NC1c2ccccc2OC12CCN(c1cnc3c(N4CCCc5ncccc54)n[nH]c3n1)CC2 (stereo not given) + C#Cc1c(F)ccc2cc(O)cc(-c3ncc4c(N5CC6CCC(C5)N6)nc(OCC56CCCN5CC(F)C6)nc4c3F)c12 | 31.3
CCN1CCN(Cc2ccc(Nc3ncc(F)c(-c4cc(F)c5nc(C)n(C(C)C)c5c4)n3)nc2)CC1 + C=CC(=O)N1CCN(c2nc(OCC3CCCN3C)nc3c(F)c(-c4nc(N)cc(C)c4C(F)(F)F)c(Cl)cc23)C(C)C1 | 27
CC(C)NCC(C(=O)N1CCN(c2ncnc3c2C(C)CC3O)CC1)c1ccc(Cl)cc1 (stereo not given) + C=CC(=O)N1CCN(c2nc(OCC3CCCN3C)nc3c(F)c(-c4nc(N)cc(C)c4C(F)(F)F)c(Cl)cc23)C(C)C1 | 53.7
C=CC(=O)Nc1cc(Nc2nccc(-c3cn(C)c4ccccc34)n2)c(OC)cc1N(C)CCN(C)C + C=CC(=O)N1CCN(c2nc(OCC3CCCN3C)nc3c(F)c(-c4nc(N)cc(C)c4C(F)(F)F)c(Cl)cc23)C(C)C1 | 8.42
CC(Nc1ccc2c(c1)OCCn1cc(N3C(=O)OCC3C(F)F)nc1-2)C(N)=O (stereo not given) + C=CC(=O)N1CCN(c2nc(OCC3CCCN3C)nc3c(F)c(-c4nc(N)cc(C)c4C(F)(F)F)c(Cl)cc23)C(C)C1 | 45
C[C@@H](NC(=O)c1ncnc(N)c1Cl)c1ncc(C(=O)Nc2cc(C(F)(F)F)c(Cl)cn2)s1 + C=CC(=O)N1CCN(c2nc(OCC3CCCN3C)nc3c(F)c(-c4nc(N)cc(C)c4C(F)(F)F)c(Cl)cc23)C(C)C1 | 59.2
Nc1ccn(C2OC(CO)C(O)C2(F)F)c(=O)n1 (stereo not given) + C=CC(=O)N1CCN(c2nc(OCC3CCCN3C)nc3c(F)c(-c4nc(N)cc(C)c4C(F)(F)F)c(Cl)cc23)C(C)C1 | 15.2
CC(Nc1ccc2c(c1)OCCn1cc(N3C(=O)OCC3C(F)F)nc1-2)C(N)=O (stereo not given) + C#Cc1c(F)ccc2cc(O)cc(-c3ncc4c(N5CC6CCC(C5)N6)nc(OCC56CCCN5CC(F)C6)nc4c3F)c12 | 88.3
NC1c2ccccc2OC12CCN(c1cnc3c(N4CCCc5ncccc54)n[nH]c3n1)CC2 (stereo not given) + C=CC(=O)N1CCN(c2nc(OCC3CCCN3C)nc3c(F)c(-c4nc(N)cc(C)c4C(F)(F)F)c(Cl)cc23)C(C)C1 | 8.05
Cc1nc(N2CCC3(CC2)COC(C)C3N)c(CO)nc1Sc1ccnc(N)c1Cl (stereo not given) + C#Cc1c(F)ccc2cc(O)cc(-c3ncc4c(N5CC6CCC(C5)N6)nc(OCC56CCCN5CC(F)C6)nc4c3F)c12 | 83.6
O=C(c1ccc(F)c(F)c1Nc1ccc(I)cc1F)N1CC(O)([C@@H]2CCCCN2)C1 + C=CC(=O)N1CCN(c2nc(OCC3CCCN3C)nc3c(F)c(-c4nc(N)cc(C)c4C(F)(F)F)c(Cl)cc23)C(C)C1 | 5.51
CCC(CC)c1cc(NC2CCC(N)C2)n2nccc2n1 (stereo not given) + C=CC(=O)N1CCN(c2nc(OCC3CCCN3C)nc3c(F)c(-c4nc(N)cc(C)c4C(F)(F)F)c(Cl)cc23)C(C)C1 | 51.9
CCN1CCN(Cc2ccc(Nc3ncc(F)c(-c4cc(F)c5nc(C)n(C(C)C)c5c4)n3)nc2)CC1 + C#Cc1c(F)ccc2cc(O)cc(-c3ncc4c(N5CC6CCC(C5)N6)nc(OCC56CCCN5CC(F)C6)nc4c3F)c12 | 74.1
C[C@@H](NC(=O)c1ncnc(N)c1Cl)c1ncc(C(=O)Nc2cc(C(F)(F)F)c(Cl)cn2)s1 + C#Cc1c(F)ccc2cc(O)cc(-c3ncc4c(N5CC6CCC(C5)N6)nc(OCC56CCCN5CC(F)C6)nc4c3F)c12 | 130
CC1(O)CCCC1n1c(=O)c(C(F)F)cc2cnc(NC3CCN(S(C)(=O)=O)CC3)nc21 (stereo not given) + C#Cc1c(F)ccc2cc(O)cc(-c3ncc4c(N5CC6CCC(C5)N6)nc(OCC56CCCN5CC(F)C6)nc4c3F)c12 | 91.7
